System: Staphylococcus epidermidis
assayName: Antibacterial activity against Staphylococcus epidermidis ATCC 12228 by microbroth dilution technique
Type: functional
Measured MIC, listed per entry for reference.
quantity: MIC (µg/mL)

1. CCCC[C@H](CN(O)C=O)C(=O)N1CC=C[C@H]1C(=O)Nc1ncc(C)s1 ... 0.25
2. CCCC[C@H](CN(O)C=O)C(=O)N1CC=C[C@H]1C(=O)Nc1ccc(F)cn1 ... 0.5
3. CC(=O)NC[C@H]1CN(c2ccc(N3CCOCC3)c(F)c2)C(=O)O1 [LINEZOLID] ... 0.5

----------
Test system: Staphylococcus epidermidis
assayName: Antibacterial activity against Staphylococcus epidermidis ATCC 12228 by microbroth dilution technique
Type: functional
Lab note: cut-off is 2 µg/mL. Strictly less in MIC is condition met. Exactly 2 µg/mL or more is condition not met.

1. CCCC[C@H](CN(O)C=O)C(=O)N1CC=C[C@H]1C(=O)Nc1ccccc1Br ... condition not met
2. CCCC[C@H](CN(O)C=O)C(=O)N1CC=C[C@H]1C(=O)Nc1ccccc1Cl ... condition met
3. CCCC[C@H](CN(O)C=O)C(=O)N1CC=C[C@H]1C(=O)N[C@H](C)c1ccccc1 ... condition not met
4. CCCC[C@H](CN(O)C=O)C(=O)N1CC=C[C@H]1C(=O)NC1CC1 ... condition not met
5. CCCC[C@H](CN(O)C=O)C(=O)N1CCC[C@H]1C(=O)Nc1ccc(F)c[n+]1[O-] ... condition met
6. CCCC[C@H](CN(O)C=O)C(=O)N1CC=C[C@H]1C(=O)Nc1ccccn1 ... condition met
7. CCCC[C@H](CN(O)C=O)C(=O)N1CC=C[C@H]1C(=O)Nc1ccc(Cl)cc1 ... condition not met
8. CCCC[C@H](CN(O)C=O)C(=O)N1CC=C[C@H]1C(=O)N[C@@H](C)c1ccccc1 ... condition not met
9. CCCC[C@H](CN(O)C=O)C(=O)N1CC=C[C@H]1C(=O)Nc1ccc(F)c[n+]1[O-] ... condition met
10. O=C(O)c1cn(C2CC2)c2cc(N3CCNCC3)c(F)cc2c1=O ... condition met
11. CCCC[C@H](CN(O)C=O)C(=O)N1CC=C[C@H]1C(=O)Nc1cccc(Br)c1 ... condition met
12. CCCC[C@H](CN(O)C=O)C(=O)N1CC=C[C@H]1C(=O)Nc1ccc(F)cc1 ... condition not met
13. CCCC[C@H](CN(O)C=O)C(=O)N1CC=C[C@H]1C(=O)Nc1ccc([N+](=O)[O-])cc1 ... condition met
14. CCCC[C@H](CN(O)C=O)C(=O)N1CC=C[C@H]1C(=O)Nc1nnc(C(F)(F)F)s1 ... condition not met
15. CCCC[C@H](CN(O)C=O)C(=O)N1CC=C[C@H]1C(=O)N1CCOCC1 ... condition not met
